target: Rho-associated protein kinase 2 (Homo sapiens, UniProt O75116); assay: human Rho kinase 2 inhibition – biochemical, Kinase-Glo luminescence, S6 peptide, 1536-well, dose response (AID 644)
Sequence (O75116 whole entry): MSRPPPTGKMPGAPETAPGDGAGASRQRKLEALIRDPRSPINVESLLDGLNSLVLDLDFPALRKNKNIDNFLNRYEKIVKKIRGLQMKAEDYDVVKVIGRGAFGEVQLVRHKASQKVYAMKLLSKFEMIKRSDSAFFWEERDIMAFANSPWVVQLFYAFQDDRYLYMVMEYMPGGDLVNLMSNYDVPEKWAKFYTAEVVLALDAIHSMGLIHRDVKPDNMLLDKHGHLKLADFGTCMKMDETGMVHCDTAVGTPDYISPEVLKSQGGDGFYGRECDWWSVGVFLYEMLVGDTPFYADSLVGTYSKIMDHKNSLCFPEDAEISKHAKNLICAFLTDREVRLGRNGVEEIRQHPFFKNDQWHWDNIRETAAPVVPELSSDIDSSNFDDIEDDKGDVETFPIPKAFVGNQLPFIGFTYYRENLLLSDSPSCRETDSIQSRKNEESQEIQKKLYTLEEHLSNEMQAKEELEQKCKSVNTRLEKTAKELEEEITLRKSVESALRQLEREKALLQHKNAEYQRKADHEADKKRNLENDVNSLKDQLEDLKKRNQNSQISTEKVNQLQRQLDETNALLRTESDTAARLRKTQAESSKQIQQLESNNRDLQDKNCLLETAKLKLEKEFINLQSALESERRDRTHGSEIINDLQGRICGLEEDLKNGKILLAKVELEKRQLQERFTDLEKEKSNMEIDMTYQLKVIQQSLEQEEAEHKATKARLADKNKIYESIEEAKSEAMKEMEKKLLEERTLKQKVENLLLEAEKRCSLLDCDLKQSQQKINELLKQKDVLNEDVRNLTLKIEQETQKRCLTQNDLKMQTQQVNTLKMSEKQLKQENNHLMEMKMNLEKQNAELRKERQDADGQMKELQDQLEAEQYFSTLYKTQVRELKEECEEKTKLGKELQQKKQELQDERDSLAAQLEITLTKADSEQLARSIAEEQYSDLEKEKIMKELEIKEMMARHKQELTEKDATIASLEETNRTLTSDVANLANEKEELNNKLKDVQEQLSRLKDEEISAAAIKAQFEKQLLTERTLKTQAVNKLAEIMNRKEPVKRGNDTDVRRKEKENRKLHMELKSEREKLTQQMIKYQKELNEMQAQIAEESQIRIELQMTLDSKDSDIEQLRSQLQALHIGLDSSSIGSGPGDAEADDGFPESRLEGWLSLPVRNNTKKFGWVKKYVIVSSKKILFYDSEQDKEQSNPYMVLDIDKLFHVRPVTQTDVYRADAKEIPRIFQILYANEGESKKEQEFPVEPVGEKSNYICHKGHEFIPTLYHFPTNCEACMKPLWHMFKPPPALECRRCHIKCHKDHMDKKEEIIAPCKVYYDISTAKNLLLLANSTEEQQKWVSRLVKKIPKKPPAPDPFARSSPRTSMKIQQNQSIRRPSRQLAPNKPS
ENDPOINT: IC50

Example results:
1) C(=Nc1nc2ccccc2n1CCN1CCCCC1)c1cccs1 [MLS000038975]    > 59.6 µM
2) c1cc2c(cc1Nc1nc(-c3ccc4c(c3)OCO4)cs1)OCCO2    > 59.6 µM
3) Cc1cc(NC(=O)CSc2nc(-c3ccccc3)cs2)no1 [MLS000066259]    > 59.6 µM

I would be grateful if you could share the reported IC50 for CC(C)[C@H]1C(=O)N2CCC[C@H]2[C@]2(O)O[C@](NC(=O)[C@@H]3C=C4c5cccc6[nH]cc(c56)C[C@H]4N(C)C3)(C(C)C)C(=O)N12 [ERGOCORNINE] . > 59.6 µM

Then what about the compound `N#Cc1c(N=Cc2ccco2)sc2c1CCCCC2` ? > 19.9 µM

Then what about the compound `c1coc(CNc2ncnc3sc4c(c23)CCCCC4)c1` ? > 59.6 µM

Then what about the compound `O=C(O)c1cc(NCc2ccc3c(c2)OCO3)ccc1N1CCOCC1` ? > 59.6 µM

Then what about the compound `Nc1ccc2cn[nH]c2c1` ? > 19.9 µM

Then what about the compound `N#Cc1c(N=Cc2cccs2)sc2c1CCCCC2` ? > 59.6 µM

Then what about the compound CCCCC(=O)Nc1ccc2c(c1)C(=O)NC2=O [MLS000103070] ? > 19.9 µM

---

biological target: Rho-associated protein kinase 2 (Homo sapiens, UniProt O75116); experiment: human Rho kinase 2 inhibition – biochemical, Kinase-Glo luminescence, S6 peptide, 1536-well, dose response (AID 644); details: inactive by the depositor's call
ENDPOINT: IC50 (µM)
Your answer is read as µM, so omit the unit and give the number.

Example results:
1) c1nc(NC2CCCCC2)c2[nH]cnc2n1    15.3
2) Cc1cc2c(ccc3[nH]onc32)n1    18.8
3) O=C(CSc1nc(-c2ccc(F)cc2)c[nH]1)Nc1cccc(O)c1    23.4
4) O=C(c1ccccc1)c1ccc2[nH]cnc2c1    16.3
5) O=C(Nc1ccncc1)Nc1ccc(F)cc1F    19
6) CN1C(=O)CSc2ccc(NC(=O)NCc3cccnc3)cc21    10.1

I would be grateful if you could share the reported IC50 for `Nc1ccc2[nH]ncc2c1` . 12.9

Then what about the compound `Nc1cccc2cnccc12` ? 30.1

---

target: UniProt:O75116; assay: human Rho kinase 2 inhibition – biochemical, Kinase-Glo luminescence, S6 peptide, 1536-well, dose response (AID 644)
pIC50: −log10 of the molar value.
ENDPOINT: pIC50

1) COc1ccc2c(Cl)c(C(N)=O)sc2c1    5.17
2) COc1ccc2[nH]c(=O)c3c(c2c1)OC(C)(C)C=C3    < 4.70
3) COc1ccc(CCC(=O)Nc2nc3c(s2)CN(C)CC3)cc1OC    < 4.22

I would be grateful if you could share the reported pIC50 for `N#Cc1cccc(NC(=O)CSc2ccccc2)c1` . < 4.70

---

Quick reference: log10(IC50) of the listed items.
molecular target: Rho-associated protein kinase 2 (Homo sapiens, UniProt O75116); assay: human Rho kinase 2 inhibition – biochemical, Kinase-Glo luminescence, S6 peptide, 1536-well, dose response (AID 644); details: inactive by the depositor's call
Response schema: value (number) is log10 of IC50 in units of µM.

1) Cc1c(C)n(C)c2ccc(C(=O)NCc3cccs3)cc12    1.08
2) Clc1ccccc1-c1nnc2sc(-c3ccncc3)nn12    1.90
3) Cc1c(C(=O)Nc2ccc3oc(-c4cccnc4)nc3c2)oc2ccccc12    3.00
4) COC1(OC)N=C(N)C2(C#N)C(c3ccc4c(c3)OCO4)C12C#N (stereo not drawn)    1.68
5) Cc1ccc2c(c1)c1c3n2CCN(C(=O)Cn2c(-c4ccccc4)noc2=O)C3CCC1 (stereo not drawn)    1.27
6) CCC(=O)Nc1ccc(C(=O)Cn2nc(C(=O)O)c3ccccc3c2=O)cc1    1.04
7) Cc1ccc(S(=O)(=O)NCCCOC(=O)Nc2ccncc2)cc1    1.31
8) Nc1ncnc2c1cnn2-c1ccccc1    1.31
9) COc1ccc(N2CCN(c3ncnc4[nH]cnc34)CC2)cc1    1.22
10) Brc1ccc2[nH]ncc2c1    1.21

I would be grateful if you could share the reported log10(IC50) for `N#Cc1cc2c(nc1SCc1ccncc1)CCC2` . 1.31

Then what about the compound O=C(CCCOc1ccccc1)Nc1ccncc1 [4-Phenoxy-N-pyridin-4-yl-butyramide] ? 1.15

Then what about the compound `O=C(NCc1ccc2c(c1)OCO2)c1ccc2snnc2c1` ? 1.06

Then what about the compound `O=C(Nc1ccc(N2CCOCC2)cc1)Nc1ccc2nc(-c3ccco3)c(-c3ccco3)nc2c1` ? 1.41

Then what about the compound `Cc1c(C(=O)N2CCCCC2)sc(N)c1C#N` ? 1.94
